Cited source: ChEMBL document CHEMBL4028802

- Organism: Homo sapiens
- assay.summary: Liver toxicity in human assessed as induction of drug-induced liver injury by measuring severity class index
recorded.metric: DILI_severity_class
The response must contain the number and no unit.

For C#C[C@]1(O)CC[C@H]2[C@@H]3CCC4=Cc5oncc5C[C@]4(C)[C@H]3CC[C@@]21C [DANAZOL] , what is its reported DILI_severity_class? 8

For O=C(c1ccccc1)c1ccc2n1CCC2C(=O)O (configuration not stated) [KETOROLAC] , what is its reported DILI_severity_class? 3

For COc1cccc2c1[C@@H]1CN(CCCCn3c(=O)[nH]c4c(sc5ncc(-c6ccccc6)nc54)c3=O)C[C@@H]1CO2 [FIDUXOSIN] , what is its reported DILI_severity_class? 8

For CC(O)(P(=O)(O)O)P(=O)(O)O [ETIDRONIC ACID] , what is its reported DILI_severity_class? 0

For CCCCCCCCCC(=O)N[C@@H](Cc1c[nH]c2ccccc12)C(=O)N[C@H](CC(N)=O)C(=O)N[C@@H](CC(=O)O)C(=O)N[C@@H]1C(=O)NCC(=O)N[C@@H](CCCN)C(=O)N[C@@H](CC(=O)O)C(=O)N[C@H](C)C(=O)N[C@@H](CC(=O)O)C(=O)NCC(=O)N[C@H](CO)C(=O)N[C@@H]([C@H](C)CC(=O)O)C(=O)N[C@@H](CC(=O)c2ccccc2N)C(=O)O[C@@H]1C [DAPTOMYCIN] , what is its reported DILI_severity_class? 5

For Cc1cccc(Nc2ccccc2C(=O)O)c1C [MEFENAMIC ACID] , what is its reported DILI_severity_class? 8

For CNC(=O)c1cc(Oc2ccc(NC(=O)Nc3ccc(Cl)c(C(F)(F)F)c3)cc2)ccn1 [SORAFENIB] , what is its reported DILI_severity_class? 8

For Fc1ccccc1C1=NCC(=S)N(CC(F)(F)F)c2ccc(Cl)cc21 [QUAZEPAM] , what is its reported DILI_severity_class? 0

For CC(=O)O[C@H]1C[C@@H]2CC[C@@H]3[C@H](CC[C@@]4(C)[C@H]3C[C@H]([N+]3(C)CCCCC3)[C@@H]4OC(C)=O)[C@@]2(C)C[C@@H]1N1CCCCC1 [VECURONIUM] , what is its reported DILI_severity_class? 0

For CN(C)C/C=C(/c1ccc(Br)cc1)c1cccnc1 [ZIMELDINE] , what is its reported DILI_severity_class? 8

For Cc1c(C)c2c(c(C)c1O)CCC(C)(COc1ccc(CC3SC(=O)NC3=O)cc1)O2 (configuration not stated) [TROGLITAZONE] , what is its reported DILI_severity_class? 8

For O=NN(CCCl)C(=O)NC1CCCCC1 [LOMUSTINE] , what is its reported DILI_severity_class? 3

For CCC(C)n1ncn(-c2ccc(N3CCN(c4ccc(OCC5COC(Cn6cncn6)(c6ccc(Cl)cc6Cl)O5)cc4)CC3)cc2)c1=O (configuration not stated) [ITRACONAZOLE] , what is its reported DILI_severity_class? 8

For CC(=O)Oc1ccccc1C(=O)O [ASPIRIN] , what is its reported DILI_severity_class? 0

For NC(=O)c1ncn([C@@H]2O[C@H](CO)[C@@H](O)[C@H]2O)n1 [RIBAVIRIN] , what is its reported DILI_severity_class? 7

For CC(C)CN(C[C@@H](O)[C@H](Cc1ccccc1)NC(=O)O[C@H]1CO[C@H]2OCC[C@H]21)S(=O)(=O)c1ccc(N)cc1 , what is its reported DILI_severity_class? 8

For CN1CC[C@]23c4c5ccc(O)c4O[C@H]2C(=O)CC[C@@]3(O)[C@H]1C5 [OXYMORPHONE] , what is its reported DILI_severity_class? 0

---

- Species: Homo sapiens
- assay.summary: Liver toxicity in human assessed as induction of drug-induced liver injury by measuring severity class index
So basically: DILI_severity_class at 3 or higher? That is Criterion met. Lower than 3? That is Criterion not met.

Would you say CN1Cc2c(N)cccc2C(c2ccccc2)C1 (stereo unspecified) shows DILI_severity_class at minimum 3? Criterion met

Would you say O=C1Nc2ccc(Cl)cc2C(c2ccccc2)=NC1O (stereo unspecified) shows DILI_severity_class at minimum 3? Criterion met

Would you say Cc1nnc(NS(=O)(=O)c2ccc(N)cc2)s1 shows DILI_severity_class at minimum 3? Criterion not met

Would you say O=C(c1cc(O)c(O)c(O)c1)c1ccc(O)c(O)c1O shows DILI_severity_class at minimum 3? Criterion met

Would you say CN(C/C=C/C#CC(C)(C)C)Cc1cccc2ccccc12 shows DILI_severity_class at minimum 3? Criterion met

Would you say CCCCC[C@](C)(O)/C=C/[C@@H]1[C@@H](C/C=C\CCCC(=O)O)[C@@H](O)C[C@H]1O.NC(CO)(CO)CO shows DILI_severity_class at minimum 3? Criterion not met

Would you say CC(=O)[C@H]1CC[C@H]2[C@@H]3CCC4=CC(=O)CC[C@]4(C)[C@H]3CC[C@]12C shows DILI_severity_class at minimum 3? Criterion not met

Would you say CCCCCN(C)CCC(O)(P(=O)(O)O)P(=O)(O)O shows DILI_severity_class at minimum 3? Criterion not met

Would you say OC(CCN1CCCCC1)(c1ccccc1)C1CCCCC1 (stereo unspecified) shows DILI_severity_class at minimum 3? Criterion not met

Would you say CSCC[C@H](NC(=O)[C@H](Cc1ccc(OS(=O)(=O)O)cc1)NC(=O)[C@@H](N)CC(=O)O)C(=O)NCC(=O)N[C@@H](Cc1c[nH]c2ccccc12)C(=O)N[C@@H](CCSC)C(=O)N[C@@H](CC(=O)O)C(=O)N[C@@H](Cc1ccccc1)C(N)=O [SINCALIDE] shows DILI_severity_class at minimum 3? Criterion not met

Would you say C[C@]12CC[C@H]3[C@@H](CCC4=CC(=O)CC[C@@]43C)[C@@H]1CC[C@@H]2O shows DILI_severity_class at minimum 3? Criterion met

---

- Species: Homo sapiens
- assay.summary: Liver toxicity in human assessed as induction of drug-induced liver injury by measuring verified drug-induced liver injury concern status
recorded.metric: DILI_Concern

compound: NCCCNCCSP(=O)(O)O [AMIFOSTINE]
DILI_Concern: No-Dili-Concern
--
compound: O=C(NCC(O)CO)c1c(I)c(C(=O)NCC(O)CO)c(I)c(N(CCO)C(=O)CO)c1I (stereo not given) [IOVERSOL]
DILI_Concern: No-Dili-Concern
--
compound: CN1CC(=O)N2[C@H](c3ccc4c(c3)OCO4)c3[nH]c4ccccc4c3C[C@@H]2C1=O
DILI_Concern: Ambiguous-Dili-Concern
--
compound: CCCC(=O)Nc1ccc(OCC(O)CNC(C)C)c(C(C)=O)c1 (stereo not given) [ACEBUTOLOL]
DILI_Concern: Less-Dili-Concern
--
compound: CC1OC2(CS1)CN1CCC2CC1 (stereo not given) [CEVIMELINE]
DILI_Concern: Ambiguous-Dili-Concern
--
compound: CC(C)OC(=O)C(C)(C)Oc1ccc(C(=O)c2ccc(Cl)cc2)cc1 [FENOFIBRATE]
DILI_Concern: Less-Dili-Concern
--
compound: OC[C@H]1O[C@@H](O[C@@H]2[C@@H](CO)O[C@](O)(CO)[C@H]2O)[C@H](O)[C@@H](O)[C@H]1O [LACTULOSE]
DILI_Concern: No-Dili-Concern
--
compound: NS(=O)(=O)c1cc2c(cc1Cl)NCNS2(=O)=O [HYDROCHLOROTHIAZIDE]
DILI_Concern: Less-Dili-Concern

For OCCOCCN1CCN(C2=Nc3ccccc3Sc3ccccc32)CC1 [QUETIAPINE] , what is its reported DILI_Concern? Less-Dili-Concern

---

Consider the following compounds; for each one, report its DILI_severity_class.
- Species on record: Homo sapiens
- assay.summary: Liver toxicity in human assessed as induction of drug-induced liver injury by measuring severity class index
The response must contain the number and no unit.

For CCCCCCC(C)(C)c1cc(O)c2c(c1)OC(C)(C)C1CCC(=O)CC21 (centres undefined) [NABILONE] , what is its reported DILI_severity_class? 0

For CCCC[C@](C)(O)C/C=C/[C@H]1[C@H](O)CC(=O)[C@@H]1CCCCCCC(=O)OC , what is its reported DILI_severity_class? 3

For CN(C)Cc1ccc(CSCCN/C(=C\[N+](=O)[O-])NCc2ccc3c(c2)OCO3)o1 [NIPEROTIDINE] , what is its reported DILI_severity_class? 8

For COC(=O)C1=C(C)NC(C)=C(C(=O)OC)C1c1ccccc1[N+](=O)[O-] [NIFEDIPINE] , what is its reported DILI_severity_class? 3

---

- Organism: Homo sapiens
- assay.summary: Liver toxicity in human assessed as induction of drug-induced liver injury by measuring severity class index
recorded.metric: DILI_severity_class
The response must contain the number and no unit.

For CN1C[C@H](C(=O)N[C@]2(C)O[C@@]3(O)[C@@H]4CCCN4C(=O)[C@H](Cc4ccccc4)N3C2=O)C[C@@H]2c3cccc4[nH]cc(c34)C[C@H]21 [DIHYDROERGOTAMINE] , what is its reported DILI_severity_class? 0

For O=C1Nc2ccc(Cl)cc2C(c2ccccc2Cl)=NC1O (stereo not given) [LORAZEPAM] , what is its reported DILI_severity_class? 3

For O=C(O)Cc1csc(-c2ccc(Cl)cc2)n1 [FENCLOZIC ACID] , what is its reported DILI_severity_class? 8

For CC#C[C@]1(O)CC[C@H]2[C@@H]3CCC4=CC(=O)CCC4=C3[C@@H](c3ccc(N(C)C)cc3)C[C@@]21C [MIFEPRISTONE] , what is its reported DILI_severity_class? 0

For CO[C@H]1/C=C/O[C@@]2(C)Oc3c(C)c(O)c4c(O)c(c5c(nc6cc(C)ccn65)c4c3C2=O)NC(=O)/C(C)=C\C=C\[C@H](C)[C@H](O)[C@@H](C)[C@@H](O)[C@@H](C)[C@H](OC(C)=O)[C@@H]1C [RIFAXIMIN] , what is its reported DILI_severity_class? 7

For N[C@@H]1[C@H]2CN(c3nc4c(cc3F)c(=O)c(C(=O)O)cn4-c3ccc(F)cc3F)C[C@@H]12 [TROVAFLOXACIN] , what is its reported DILI_severity_class? 8

For COC(=O)Nc1nc2ccc(C(=O)c3ccccc3)cc2[nH]1 [MEBENDAZOLE] , what is its reported DILI_severity_class? 3

For CC(C)C[C@H](NC(=O)[C@@H](COC(C)(C)C)NC(=O)[C@H](Cc1ccc(O)cc1)NC(=O)[C@H](CO)NC(=O)[C@H](Cc1c[nH]c2ccccc12)NC(=O)[C@H](Cc1cnc[nH]1)NC(=O)[C@@H]1CCC(=O)N1)C(=O)N[C@@H](CCCNC(=N)N)C(=O)N1CCC[C@H]1C(=O)NNC(N)=O [GOSERELIN] , what is its reported DILI_severity_class? 3

For CN1C(CSCC(F)(F)F)Nc2cc(Cl)c(S(N)(=O)=O)cc2S1(=O)=O (stereo not given) [POLYTHIAZIDE] , what is its reported DILI_severity_class? 2

For CCCC(C)(COC(N)=O)COC(=O)NC(C)C (stereo not given) [CARISOPRODOL] , what is its reported DILI_severity_class? 0

For CC(C)c1cccc(C(C)C)c1O [PROPOFOL] , what is its reported DILI_severity_class? 3

For O=C(O)CCc1nc(-c2ccccc2)c(-c2ccccc2)o1 [OXAPROZIN] , what is its reported DILI_severity_class? 3

For Oc1ncnc2[nH]ncc12 [ALLOPURINOL] , what is its reported DILI_severity_class? 8

For CCCCCCCCCCC[C@@H](C[C@@H]1OC(=O)[C@H]1CCCCCC)OC(=O)[C@H](CC(C)C)NC=O [ORLISTAT] , what is its reported DILI_severity_class? 8

For O=C(O)Cc1ccccc1Nc1c(Cl)cccc1Cl [DICLOFENAC] , what is its reported DILI_severity_class? 8
